Measured values drawn from patent US6864249B2 for this set.

PROTOCOL SUMMARY: Pharmacokinetic study for oral bioavailability in rats
Format: in vivo, Male Sprague-Dawley rats
EXPERIMENTAL SETUP: oral dosing in rats, 30 mg/kg
QUANTITY MEASURED: Cmax (ng/mL)

>>> df
                                   molecule  test_result
0  N=C(N)c1ccc(CNC(=O)[C@@H]2CCCN2C(=O)[C@H](NS(N)(=O)=O)C(c2ccccc2)c2ccccc2)s1 [Example 1]         2200
1  N=C(N)c1ccc(CNC(=O)[C@@H]2CCCN2C(=O)[C@H](NCCC(=O)O)C(c2ccccc2)c2ccccc2)s1 [Example 41]         4900
2  N=C(N)c1csc(CNC(=O)[C@@H]2CCCN2C(=O)[C@H](NCC(=O)O)C(c2ccccc2)c2ccccc2)n1 [Example 40]        11100
3  N=C(N)c1cc(CNC(=O)[C@@H]2CCCN2C(=O)[C@H](NCC(=O)O)C(c2ccccc2)c2ccccc2)cs1 [Example 39]         4600
4  N=C(N)c1ccc(CNC(=O)[C@@H]2CCCN2C(=O)[C@H](NCC(=O)O)C(c2ccccc2)c2ccccc2)s1 [Example 29]         9500

----------
PROTOCOL SUMMARY: Pharmacokinetic study for oral bioavailability in rats
Assay type: in vivo, Male Sprague-Dawley rats
EXPERIMENTAL SETUP: male, Sprague-Dawley, rat, plasma; oral dosing in rats, 30 mg/kg
QUANTITY MEASURED: Tmax (min)

                                 smiles_str  unit  test_result
0  CS(=O)(=O)N[C@@H](C(=O)N1CCC[C@H]1C(=O)NCc1ccc(CN)s1)C(c1ccccc1)c1ccccc1   min           32
1  N=C(N)c1cc(CNC(=O)[C@@H]2CCCN2C(=O)[C@H](NCC(=O)O)C(c2ccccc2)c2ccccc2)cs1   min           15
2  N=C(N)c1ccc(CNC(=O)[C@@H]2CCCN2C(=O)[C@H](NCCC(=O)O)C(c2ccccc2)c2ccccc2)s1   min           20
3  COC(=O)N[C@@H](C(=O)N1CCC[C@H]1C(=O)NCc1ccc(C(=N)N)s1)C(c1ccccc1)c1ccccc1   min           60
4  COC(=O)N[C@@H](C(=O)N1CCC[C@H]1C(=O)NCc1csc(C(=N)N)c1)C(c1ccccc1)c1ccccc1   min           80
5  N=C(N)c1ccc(CNC(=O)[C@@H]2CCCN2C(=O)[C@H](NCC(=O)O)C(c2ccccc2)c2ccccc2)s1   min           15
6  N=C(N)c1ccc(CNC(=O)[C@@H]2CCCN2C(=O)[C@H](NS(N)(=O)=O)C(c2ccccc2)c2ccccc2)s1   min           60

----------
Recorded AUC by entry
PROTOCOL SUMMARY: Pharmacokinetic study for oral bioavailability in rats
Format: in vivo, Male Sprague-Dawley rats
EXPERIMENTAL SETUP: oral dosing in rats, 30 mg/kg
QUANTITY MEASURED: AUC

In [3]: df
Out[3]:
                                 smiles_str     test_result
0  N=C(N)c1ccc(CNC(=O)[C@@H]2CCCN2C(=O)[C@H](NCCC(=O)O)C(c2ccccc2)c2ccccc2)s1   503 µg·min/mL
1  COC(=O)N[C@@H](C(=O)N1CCC[C@H]1C(=O)NCc1cc(C(=N)N)cs1)C(c1ccccc1)c1ccccc1   850 µg·min/mL
2  N=C(N)c1cc(CNC(=O)[C@@H]2CCCN2C(=O)[C@H](NCC(=O)O)C(c2ccccc2)c2ccccc2)cs1   212 µg·min/mL
3  N=C(N)c1csc(CNC(=O)[C@@H]2CCCN2C(=O)[C@H](NS(N)(=O)=O)C(c2ccccc2)c2ccccc2)c1   254 µg·min/mL
4  N=C(N)c1csc(CNC(=O)[C@@H]2CCCN2C(=O)[C@H](NCC(=O)O)C(c2ccccc2)c2ccccc2)n1  1126 µg·min/mL
5  N=C(N)c1ccc(CNC(=O)[C@@H]2CCCN2C(=O)[C@H](NCC(=O)O)C(c2ccccc2)c2ccccc2)s1  1390 µg·min/mL
6  COC(=O)N[C@@H](C(=O)N1CCC[C@H]1C(=O)NCc1csc(C(=N)N)c1)C(c1ccccc1)c1ccccc1  1297 µg·min/mL

----------
# AUC per entry
PROTOCOL SUMMARY: Pharmacokinetic study for oral bioavailability in rats
Format: in vivo, Male Sprague-Dawley rats
EXPERIMENTAL SETUP: male, Sprague-Dawley, rat, plasma; oral dosing in rats, 30 mg/kg; read-out: AUC (converted)
QUANTITY MEASURED: AUC (ng·h/mL)

                                   compound     unit  test_result
0  COC(=O)N[C@@H](C(=O)N1CCC[C@H]1C(=O)NCc1ccc(C(=N)N)o1)C(c1ccccc1)c1ccccc1 [Example 35]  ng·h/mL        16100
1  COC(=O)N[C@@H](C(=O)N1CCC[C@H]1C(=O)NCc1ccc(C(=N)N)s1)C(c1ccccc1)c1ccccc1 [Example 8]  ng·h/mL        26900
2  CS(=O)(=O)N[C@@H](C(=O)N1CCC[C@H]1C(=O)NCc1ccc(CN)s1)C(c1ccccc1)c1ccccc1 [Example 5]  ng·h/mL         4670
3  N=C(N)c1ccc(CNC(=O)[C@@H]2CCCN2C(=O)[C@H](NS(N)(=O)=O)C(c2ccccc2)c2ccccc2)s1 [Example 1]  ng·h/mL         4220

----------
PROTOCOL SUMMARY: Pharmacokinetic study for oral bioavailability in rats
Format: in vivo, Male Sprague-Dawley rats
EXPERIMENTAL SETUP: male, Sprague-Dawley, rat, plasma; oral dosing in rats, 30 mg/kg
QUANTITY MEASURED: Tmax (min)

>>> print(df.to_string())
                                 smiles_str  test_result
0  N=C(N)c1csc(CNC(=O)[C@@H]2CCCN2C(=O)[C@H](NS(N)(=O)=O)C(c2ccccc2)c2ccccc2)c1           45
1  N=C(N)c1csc(CNC(=O)[C@@H]2CCCN2C(=O)[C@H](NCC(=O)O)C(c2ccccc2)c2ccccc2)n1           25
2  COC(=O)N[C@@H](C(=O)N1CCC[C@H]1C(=O)NCc1cc(C(=N)N)cs1)C(c1ccccc1)c1ccccc1           80
3  COC(=O)N[C@@H](C(=O)N1CCC[C@H]1C(=O)NCc1ccc(C(=N)N)o1)C(c1ccccc1)c1ccccc1           45

----------
In this section, each of the compounds is paired with its reported Ki.
MEASUREMENT TARGET: Thrombin prepared from human plasma (Homo sapiens)
Construct: Thrombin used in this test was prepared from human plasma
PROTOCOL SUMMARY: In vitro enzyme assay for thrombin inhibition constants (Chromozym TH substrate, Dixon plot)
EXPERIMENTAL SETUP: pH 7.8, room temperature
QUANTITY MEASURED: Ki (nM)

>>> print(df.to_string())
                                  smiles_str  quantity_measured  test_result
 0  CS(=O)(=O)N[C@@H](C(=O)N1CCC[C@H]1C(=O)NCc1csc(C(=N)NN)c1)C(c1ccccc1)c1ccccc1                 Ki         0.41
 1  N=C(N)c1ccc(CNC(=O)[C@@H]2CCCN2C(=O)[C@H](NS(=O)(=O)Cc2ccccc2)C(c2ccccc2)c2ccccc2)s1                 Ki        0.021
 2  Cn1c(CNC(=O)[C@@H]2CCCN2C(=O)[C@H](NS(C)(=O)=O)C(c2ccccc2)c2ccccc2)ccc1C(=N)N                 Ki         0.23
 3  CS(=O)(=O)N[C@@H](C(=O)N1CCC[C@H]1C(=O)NCc1csc(CN)c1)C(c1ccccc1)c1ccccc1                 Ki         6.21
 4  COC(=O)N[C@@H](C(=O)N1CCC[C@H]1C(=O)NCc1csc(C(=N)N)c1)C(c1ccccc1)c1ccccc1                 Ki         0.06
 5  NCc1ccc(CNC(=O)[C@@H]2CCCN2C(=O)[C@H](NS(N)(=O)=O)C(c2ccccc2)c2ccccc2)s1                 Ki          4.7
 6  CS(=O)(=O)N[C@@H](C(=O)N1CCC[C@H]1C(=O)NCc1ccc(CN)s1)C(c1ccccc1)c1ccccc1                 Ki          5.8
 7  COC(=O)N[C@@H](C(=O)N1CCC[C@H]1C(=O)NCc1ccc(C(=N)N)s1)C(C1CCCCC1)C1CCCCC1                 Ki        0.052
 8  COC(=O)N[C@@H](C(=O)N1CCC[C@H]1C(=O)NCc1ccc(C(=N)N)o1)C(c1ccccc1)c1ccccc1                 Ki          4.6
 9  CS(=O)(=O)N[C@@H](C(=O)N1CC[C@H]1C(=O)NCc1ccc(C(=N)N)s1)C(c1ccccc1)c1ccccc1                 Ki        0.053
10  N=C(N)c1cc(CNC(=O)[C@@H]2CCCN2C(=O)[C@H](NS(N)(=O)=O)C(c2ccccc2)c2ccccc2)cs1                 Ki        0.056
11  CS(=O)(=O)N[C@@H](C(=O)N1CCC[C@H]1C(=O)NCc1cc(CN)cs1)C(c1ccccc1)c1ccccc1                 Ki        0.073
12  N=C(N)c1csc(CNC(=O)[C@@H]2CCCN2C(=O)[C@H](NS(N)(=O)=O)C(c2ccccc2)c2ccccc2)c1                 Ki        0.022
13  N=C(N)c1ccc(CNC(=O)[C@@H]2CCCN2C(=O)[C@H](NS(=O)(=O)NC2CCCCC2)C(c2ccccc2)c2ccccc2)s1                 Ki        0.011
14  N=C(N)c1ccc(CNC(=O)[C@@H]2CCCN2C(=O)[C@@H](CC2CCCCC2)NS(=O)(=O)Cc2ccccc2)s1                 Ki         0.03
15  CNS(=O)(=O)N[C@H](CC1CCCCC1)C(=O)N1CCC[C@H]1C(=O)NCc1ccc(C(=N)N)s1                 Ki        0.053
16  COC(=O)N[C@@H](C(=O)N1CCC[C@H]1C(=O)NCc1csc(C(=N)N)c1)C1CCCCC1                 Ki         13.7
17  CS(=O)(=O)N[C@H](CC1CCCCC1)C(=O)N1CCC[C@H]1C(=O)NCc1ccc(C(=N)N)s1                 Ki         0.02
18  CN(CC(=O)O)[C@@H](C(=O)N1CCC[C@H]1C(=O)NCc1ccc(C(=N)N)s1)C(c1ccccc1)c1ccccc1                 Ki        0.003
19  Cc1sc(CNC(=O)[C@@H]2CCCN2C(=O)[C@H](NS(C)(=O)=O)C(c2ccccc2)c2ccccc2)cc1C(=N)N                 Ki         0.12
20  N=C(N)c1ccc(CNC(=O)[C@@H]2CCCN2C(=O)[C@H](NCC(=O)O)C(c2ccccc2)c2ccccc2)s1                 Ki        0.015
21  N=C(N)c1ccc(CNC(=O)[C@@H]2CCCN2C(=O)[C@@H](Cc2ccc(Cl)c(Cl)c2)NS(N)(=O)=O)s1                 Ki        0.065
22  N=C(N)c1ccc(CNC(=O)[C@@H]2CCCN2C(=O)[C@@H](CC2CCCCC2)NS(=O)(=O)NC2CCCCC2)s1                 Ki        0.024
23  CS(=O)(=O)N[C@@H](C(=O)N1CCC[C@H]1C(=O)NCc1ccc(/C(N)=N/N)s1)C(c1ccccc1)c1ccccc1                 Ki         0.53
24  N=C(N)c1csc(CNC(=O)[C@@H]2CCCN2C(=O)[C@H](NS(N)(=O)=O)C(c2ccccc2)c2ccccc2)n1                 Ki         0.12
25  N=C(N)c1csc(CNC(=O)[C@@H]2CCCN2C(=O)[C@H](NCC(=O)O)C(c2ccccc2)c2ccccc2)n1                 Ki          0.6
